Where these numbers come from: paper PMC12268683

molecular target: LsrB receptor of S. coelicolor A3(2) (first of two, locus not given); construct: His6-tagged, pET-28a, E. coli BL21(DE3) or its luxS mutant, Ni-NTA; assay: isothermal titration calorimetry; settings: 25 °C, 50 mM Tris, 150 mM NaCl, 10% glycerol, pH 8.0; one-site model; no borate added; which of the two LsrB not given
REPORTED_ENDPOINT: Kd (nM)
A number alone suffices; assume nM.

input: I have this molecule here, CC(=O)C(=O)[C@@H](O)CO , and I need its recorded Kd.
output: 175
